EXPERIMENTAL_TARGET: Aldo-keto reductase family 1 member B1 (Bos taurus, UniProt P16116)
pIC50: −log10 of the molar value.
REPORTED_PROPERTY: pIC50

>  <STRUCTURE_NOTATION>
COc1ccc(/C=C2\SC(=S)NC2=O)cc1

>  <EXPERIMENTAL_TARGET>
Aldo-keto reductase family 1 member B1 (Bos taurus, UniProt P16116)

>  <RESULT_NUMBER>
5.28

$$$$
>  <STRUCTURE_NOTATION>
COc1cccc(/C=C2\SC(=S)NC2=O)c1

>  <EXPERIMENTAL_TARGET>
Aldo-keto reductase family 1 member B1 (Bos taurus, UniProt P16116)

>  <RESULT_NUMBER>
5.20

$$$$

(I) O=C1NC(=S)S/C1=C\c1ccc(Oc2ccccc2)cc1
(II) O=C(O)CN1C(=O)/C(=C/c2cccc(Oc3ccccc3)c2)SC1=S
(III) O=C1NC(=S)S/C1=C\c1ccc(O)cc1
Query :: Endpoint returns the given compounds ordered by ascending pIC50. Give your ranking as a list of the labels in the requested order.
Result :: III, I, II

(A) O=C1NC(=S)S/C1=C\c1cccc(OCc2ccccc2)c1
(B) O=C1NC(=S)S/C1=C\c1cccc(Oc2ccccc2)c1
Query :: Name the one with the greater pIC50 value, either A or B as given. When you have decided, please share the label of that item.
Result :: A

meta.source: ChEMBL document CHEMBL1641564
